TARGET: Cellular tumor antigen p53 (Homo sapiens)
EXPERIMENTAL_PROTOCOL: ATG_p53_CIS: Attagene CIS-FACTORIAL HepG2 Assay for human p53 Transcription Factor (AID 2282994)
EXPERIMENTAL_CONTEXT: HepG2 p53 cis-element reporter, Attagene mRNA; actives raise or lower the signal
Procedure: ATG_CIS is a cell-based, multiplexed-readout assay that uses HepG2, a human liver cell line, with measurements taken at 24 hours after chemical dosing in a 24-well plate.ATG_p53_CIS is one of 52 assay component(s) measured or calculated from the ATG_CIS assay. […] This assay endpoint, ATG_p53_CIS, was analyzed with bidirectional fitting relative to DMSO as the negative control and baseline of activity. […]
Active and inactive are the calls of the source. Rule for the calls: active = hit-call score of the fitted dose curve at least 0.9, where 1 is the maximum; inactive = score below 0.9.
// one of active, inactive, no free text

Each compound tested received a call. Report the one for "C=CCOC(=O)/C=C\C(=O)OCC=C" .
active

Each compound tested received a call. Report the one for "CCC=C(C)C=O" .
inactive

Each compound tested received a call. Report the one for CCC(C)C1CCCCC1=O (stereo not drawn) .
inactive

Each compound tested received a call. Report the one for "c1ccc2c(c1)-c1ccc3ccc4cccc5cc-2c1c3c45" .
inactive

Each compound tested received a call. Report the one for C=CC(O)CCCCC (stereo not drawn) .
inactive

Each compound tested received a call. Report the one for C=COCC1CCC(COC=C)CC1 (stereo not drawn) .
inactive

Each compound tested received a call. Report the one for CC(O)COCC(C)O (stereo not drawn) .
inactive

Each compound tested received a call. Report the one for "Cc1ccc(C(C)(C)O)cc1" .
inactive

Each compound tested received a call. Report the one for "NC(=O)c1cnccn1" .
inactive

Each compound tested received a call. Report the one for "CCOC(=O)C(=O)OCC" .
inactive

Each compound tested received a call. Report the one for "CC(C)CCCC(C)(C)O" .
inactive

Each compound tested received a call. Report the one for "[Cu+]" .
inactive

Each compound tested received a call. Report the one for "CC(C)(O)CCc1ccccc1" .
inactive

Each compound tested received a call. Report the one for "CC1=CCC(=C(C)C)CC1" .
inactive

Each compound tested received a call. Report the one for "CCNC(=S)NCC" .
inactive

Each compound tested received a call. Report the one for "NCCN1CCNCC1" .
inactive

Each compound tested received a call. Report the one for "COc1ccc2[nH]cc(CCNC(C)=O)c2c1" .
inactive

Each compound tested received a call. Report the one for CC(=O)C1C(=O)C=C(C)OC1=O (stereo not drawn) .
inactive

Each compound tested received a call. Report the one for "C=C(C)C(=O)OCCC[Si](OC)(OC)OC" .
inactive

Each compound tested received a call. Report the one for "CC(C)(C)c1ccc(S)cc1" .
inactive

Each compound tested received a call. Report the one for "c1ccc(OCCOc2ccccc2)cc1" .
inactive

Each compound tested received a call. Report the one for "CCC(C)(C)c1cc(O)c(C(C)(C)CC)cc1O" .
active

Each compound tested received a call. Report the one for "OC[C@H]1O[C@@H](O[C@H]2[C@H](O)[C@@H](O)[C@H](O)O[C@@H]2CO)[C@H](O)[C@@H](O)[C@H]1O" .
inactive

Each compound tested received a call. Report the one for "CCCCCCCCCCCCCC(=O)OCC" .
inactive

Each compound tested received a call. Report the one for "C[C@H](CCC(=O)O)[C@H]1CC[C@H]2[C@@H]3CC[C@@H]4C[C@H](O)CC[C@]4(C)[C@H]3CC[C@]12C" .
active

Each compound tested received a call. Report the one for CCCCCCC(C)O (stereo not drawn) .
inactive

Each compound tested received a call. Report the one for "CN(C)CCC=C1c2ccccc2CCc2ccccc21" .
active

Each compound tested received a call. Report the one for "CCCCCCCCCCCCN1CCOCC1" .
inactive

Each compound tested received a call. Report the one for "CC(C)=CCCC(C)=CC(=O)O" .
inactive

Each compound tested received a call. Report the one for "CCO[Si](CC)(OCC)OCC" .
inactive

Each compound tested received a call. Report the one for "O=c1cc(-c2ccc(O)cc2)oc2cc(O)cc(O)c12" .
inactive

Each compound tested received a call. Report the one for "CCCCCC(=O)O[C@]1(C(C)=O)CC[C@H]2[C@@H]3CCC4=CC(=O)CC[C@]4(C)[C@H]3CC[C@@]21C" .
inactive

Each compound tested received a call. Report the one for "CC/C=C\CCOC(=O)C(C)C" .
inactive
